- Experiment Summary: Permeability at 100 uM by PAMPA method
# Lookup of reported Papp at 100 µM keyed by entry

{"Smiles Notation": "CCOC(=O)C1=C(C)NC(C)=C(C(=O)OCC)C1c1ccc(OCCCCCN2CCCCC2)cc1", "Units Of Measure": "×10⁻⁶ cm/s", "Papp at 100 µM": 8.6}
{"Smiles Notation": "CCOC(=O)C1=C(C)NC(C)=C(C(=O)OCC)C1c1ccc(OCCCCCN2CCCC2)cc1", "Units Of Measure": "×10⁻⁶ cm/s", "Papp at 100 µM": 10}
